Attribution: the supplement of paper PMC9938120

Reported values of drug sensitivity score for individual entries
test system: FMOC25_1 (patient-derived low-grade serous ovarian cancer cells); assay: drug sensitivity score (DSS3, normalised partial AUC of % inhibition dose-response) (DSS (score)); higher = more sensitive (stronger inhibition of viability); extreme values may be limits of the assay; conditions: 72 h; library: FO4B; assay format: 2D, 384-well, CellTiter-Glo
Enter the number alone.

[
  {
    "compound": "CO[C@@H](C(=O)N1Cc2[nH]nc(NC(=O)c3ccc(N4CCN(C)CC4)cc3)c2C1)c1ccccc1",
    "readout": "drug sensitivity score",
    "observed": 3.1
  },
  {
    "compound": "Nc1nc(Cl)nc2c1ncn2[C@@H]1O[C@H](CO)[C@@H](O)[C@@H]1F",
    "readout": "drug sensitivity score",
    "observed": 8.5
  },
  {
    "compound": "CC1(C)NC(=O)N(c2ccc([N+](=O)[O-])c(C(F)(F)F)c2)C1=O [Nilutamide]",
    "readout": "drug sensitivity score",
    "observed": 0
  },
  {
    "compound": "COc1cc(C(=O)O)ccc1NC(=O)[C@@H]1N[C@@H](CC(C)(C)C)[C@](C#N)(c2ccc(Cl)cc2F)[C@H]1c1cccc(Cl)c1F",
    "readout": "drug sensitivity score",
    "observed": 10.5
  }
]

Please turn your attention to the following entry.
Query block: Quick check: drug sensitivity score of "COc1cc2ncnc(Oc3cccc(NC(=O)Nc4cc(C(C)(C)C(F)(F)F)on4)c3)c2cc1OC" ?
Result block: 0
